Record form. Attribute: kinase still bound, per cent of control. Fill in for each entry.
- target_desc: UniProt Q16539
- Sequence (Q16539 whole entry, looked up): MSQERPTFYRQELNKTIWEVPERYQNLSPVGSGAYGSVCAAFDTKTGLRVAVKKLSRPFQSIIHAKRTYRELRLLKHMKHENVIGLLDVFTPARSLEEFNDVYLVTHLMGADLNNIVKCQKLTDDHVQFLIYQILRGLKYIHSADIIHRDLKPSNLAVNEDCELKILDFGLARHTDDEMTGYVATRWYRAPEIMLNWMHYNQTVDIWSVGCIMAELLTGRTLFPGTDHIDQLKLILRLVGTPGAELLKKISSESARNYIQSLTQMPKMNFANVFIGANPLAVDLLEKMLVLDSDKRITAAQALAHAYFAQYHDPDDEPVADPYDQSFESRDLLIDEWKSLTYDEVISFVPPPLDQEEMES
- test_protocol: KINOMEscan competition binding
- test_context: compound 10.0 µM
One number for each entry, in %.

Known results for compounds:
Lookup: What does the record list as kinase still bound, per cent of control for `COc1cc(N2CCC(O)CC2)ccc1Nc1ncc2c(n1)N1CCc3cccc(c31)C(=O)N2C` ?
Found: 61

Lookup: What does the record list as kinase still bound, per cent of control for `COc1cc(N2CCN(C)CC2)ccc1Nc1ncc2c(n1)N(C)c1ccccc1N(C)C2=O` ?
Found: 100

Lookup: What does the record list as kinase still bound, per cent of control for `CN1C(=O)c2ccccc2N(C)c2nc(NS(=O)(=O)c3ccc(N)cc3)ncc21` ?
Found: 100

I need kinase still bound, per cent of control for every entry listed below, if you could help.
1. CN1CCN(c2ccc(C(=O)Nc3ncc4c(n3)N(C)c3ccccc3C(=O)N4C)cc2)CC1
2. CN1C(=O)c2ccccc2N(C)c2nc(Nc3ccc(N4CCC(O)CC4)cc3)ncc21
3. O=C1NC(=O)/C(=C/c2c[nH]c(=O)c(-c3ccc(N4CCNCC4)nc3)c2)S1
4. CN(C)C1=NC(=O)/C(=C/c2ccc(-c3ccc(S(N)(=O)=O)cc3)o2)S1

Found:
[100, 100, 100, 21]

---

- target_desc: LATS1 (human)
- test_protocol: KINOMEscan competition binding
- test_context: compound 10.0 µM
Record form. Attribute: kinase still bound, per cent of control. Fill in for each entry.
Numbers only, in %.

Known results for compounds:
Lookup: Lab note: need kinase still bound, per cent of control for `COc1cc(N2CCN(C)CC2)ccc1Nc1ncc2c(n1)Nc1ccccc1NC2=O` on LATS1 (human), anyone have it?
Found: 90

Lookup: Lab note: need kinase still bound, per cent of control for `CN1CCN(c2ccc(C(=O)Nc3ncc4c(n3)N(C)c3ccccc3C(=O)N4C)cc2)CC1` on LATS1 (human), anyone have it?
Found: 88

Lookup: Lab note: need kinase still bound, per cent of control for `O=C1NC(=O)/C(=C/c2c[nH]c(=O)c(-c3ccc(N4CCNCC4)nc3)c2)S1` on LATS1 (human), anyone have it?
Found: 84

Now look at this entry.
Lookup: Lab note: need kinase still bound, per cent of control for `COc1cc(N2CCN(C)CC2)ccc1Nc1ncc2c(n1)N(C)c1sccc1C(=O)N2C` on LATS1 (human), anyone have it?
Found: 79

---

- target_desc: INSR (human) (UniProt P06213)
- Sequence (P06213 whole entry, looked up): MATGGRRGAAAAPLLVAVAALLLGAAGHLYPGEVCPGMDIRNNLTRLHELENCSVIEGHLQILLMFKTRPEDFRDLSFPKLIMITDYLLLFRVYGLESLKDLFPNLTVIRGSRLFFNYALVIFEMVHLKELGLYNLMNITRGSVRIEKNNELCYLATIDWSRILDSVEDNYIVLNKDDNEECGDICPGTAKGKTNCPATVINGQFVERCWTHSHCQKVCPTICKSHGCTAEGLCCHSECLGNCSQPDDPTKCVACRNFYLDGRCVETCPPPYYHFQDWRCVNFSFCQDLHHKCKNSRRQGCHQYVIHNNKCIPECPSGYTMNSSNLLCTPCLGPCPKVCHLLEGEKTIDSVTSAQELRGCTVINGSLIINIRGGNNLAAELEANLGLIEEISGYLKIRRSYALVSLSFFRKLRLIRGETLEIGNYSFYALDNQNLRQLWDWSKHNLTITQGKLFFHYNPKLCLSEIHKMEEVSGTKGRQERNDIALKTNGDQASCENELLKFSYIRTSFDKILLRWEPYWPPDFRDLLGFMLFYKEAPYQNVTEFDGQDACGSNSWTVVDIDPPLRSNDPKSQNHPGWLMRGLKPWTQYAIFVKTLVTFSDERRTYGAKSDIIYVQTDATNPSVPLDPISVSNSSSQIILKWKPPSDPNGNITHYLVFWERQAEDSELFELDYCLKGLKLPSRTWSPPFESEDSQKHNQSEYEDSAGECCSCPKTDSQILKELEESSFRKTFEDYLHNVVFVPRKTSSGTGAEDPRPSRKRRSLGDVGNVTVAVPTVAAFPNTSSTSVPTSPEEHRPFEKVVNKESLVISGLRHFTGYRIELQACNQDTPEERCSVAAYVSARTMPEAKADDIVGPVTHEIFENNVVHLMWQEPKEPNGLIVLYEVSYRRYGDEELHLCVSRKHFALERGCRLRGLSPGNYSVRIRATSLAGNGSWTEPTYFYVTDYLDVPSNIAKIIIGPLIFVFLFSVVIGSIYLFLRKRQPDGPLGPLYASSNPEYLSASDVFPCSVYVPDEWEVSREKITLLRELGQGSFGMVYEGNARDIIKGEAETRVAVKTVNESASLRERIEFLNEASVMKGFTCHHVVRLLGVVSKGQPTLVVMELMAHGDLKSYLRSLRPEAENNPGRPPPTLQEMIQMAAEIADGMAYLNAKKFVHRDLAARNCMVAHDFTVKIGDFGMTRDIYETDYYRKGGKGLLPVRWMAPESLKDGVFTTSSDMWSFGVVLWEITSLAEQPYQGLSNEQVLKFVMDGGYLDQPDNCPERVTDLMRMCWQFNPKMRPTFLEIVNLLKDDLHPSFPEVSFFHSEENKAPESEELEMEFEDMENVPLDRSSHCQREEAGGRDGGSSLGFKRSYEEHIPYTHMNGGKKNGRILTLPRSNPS
- test_protocol: KINOMEscan competition binding
- test_context: compound 10.0 µM
// assign MET if kinase still bound, per cent of control falls strictly below 50%, else NOT MET (ties count as NOT MET)

Answered cases to consult:
Lookup: Does `CN1C(=O)c2ccccc2N(C)c2nc(NS(=O)(=O)c3ccc(N)cc3)ncc21` have kinase still bound, per cent of control strictly under 50%?
Found: NOT MET

Lookup: Does `COc1cc(N2CCN(C)CC2)ccc1Nc1ncc2c(n1)Nc1ccccc1NC2=O` have kinase still bound, per cent of control strictly under 50%?
Found: NOT MET

Lookup: Does `COc1cc(N2CCN(C)CC2)ccc1Nc1ncc2c(n1)N(C)c1sccc1C(=O)N2C` have kinase still bound, per cent of control strictly under 50%?
Found: NOT MET

Continuing:
Lookup: Does `CN1C(=O)c2ccccc2N(C)c2nc(Nc3ccc(N4CCC(O)CC4)cc3)ncc21` have kinase still bound, per cent of control strictly under 50%?
Found: NOT MET

---

- target_desc: MARK2 (human) (UniProt Q7KZI7)
- Sequence (Q7KZI7 whole entry, looked up): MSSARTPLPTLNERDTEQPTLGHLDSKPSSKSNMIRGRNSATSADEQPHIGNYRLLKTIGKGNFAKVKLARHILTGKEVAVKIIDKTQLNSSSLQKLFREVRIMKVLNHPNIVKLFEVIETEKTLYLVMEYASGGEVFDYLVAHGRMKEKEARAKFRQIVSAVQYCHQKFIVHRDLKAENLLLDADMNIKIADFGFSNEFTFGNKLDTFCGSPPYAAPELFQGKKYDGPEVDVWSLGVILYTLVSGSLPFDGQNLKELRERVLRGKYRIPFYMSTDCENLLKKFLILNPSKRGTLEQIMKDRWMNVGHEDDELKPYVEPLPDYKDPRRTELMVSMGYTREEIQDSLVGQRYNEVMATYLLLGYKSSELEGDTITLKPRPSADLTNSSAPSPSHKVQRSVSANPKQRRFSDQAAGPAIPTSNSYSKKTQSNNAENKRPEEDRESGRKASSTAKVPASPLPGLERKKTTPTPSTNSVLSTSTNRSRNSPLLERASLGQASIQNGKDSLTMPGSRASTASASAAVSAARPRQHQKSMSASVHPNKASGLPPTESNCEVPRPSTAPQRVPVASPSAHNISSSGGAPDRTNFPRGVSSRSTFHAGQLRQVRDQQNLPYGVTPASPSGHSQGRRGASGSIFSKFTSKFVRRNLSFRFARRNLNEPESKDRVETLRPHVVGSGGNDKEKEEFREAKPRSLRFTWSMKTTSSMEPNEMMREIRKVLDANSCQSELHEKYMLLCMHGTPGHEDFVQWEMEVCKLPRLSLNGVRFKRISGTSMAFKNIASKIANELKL
- test_protocol: KINOMEscan competition binding
- test_context: compound 10.0 µM
Record form. Attribute: kinase still bound, per cent of control. Fill in for each entry.
One number for each entry, in %.

Known results for compounds:
Lookup: What does the record list as kinase still bound, per cent of control for `CN1CCN(c2ccc(C(=O)Nc3ncc4c(n3)N(C)c3ccccc3C(=O)N4C)cc2)CC1` ?
Found: 100

Lookup: What does the record list as kinase still bound, per cent of control for `O=C1NC(=S)S/C1=C\c1ccc(-c2cncc3ccccc23)o1` ?
Found: 23

Lookup: What does the record list as kinase still bound, per cent of control for `COc1cc(N2CCN(C)CC2)ccc1Nc1ncc2c(n1)Nc1ccccc1NC2=O` ?
Found: 100

I need kinase still bound, per cent of control for every entry listed below, if you could help.
1. O=C1NC(=O)/C(=C/c2c[nH]c(=O)c(-c3ccc(N4CCNCC4)nc3)c2)S1
2. CN1C(=O)c2ccccc2N(C)c2nc(NS(=O)(=O)c3ccc(N)cc3)ncc21
3. COc1cc(N2CCC(O)CC2)ccc1Nc1ncc2c(n1)N1CCc3cccc(c31)C(=O)N2C

Found:
[60, 100, 97]

---

Record form. Attribute: kinase still bound, per cent of control. Fill in for each entry.
- target_desc: MYLK2 (human) (UniProt Q9H1R3)
- Sequence (Q9H1R3 whole entry, looked up): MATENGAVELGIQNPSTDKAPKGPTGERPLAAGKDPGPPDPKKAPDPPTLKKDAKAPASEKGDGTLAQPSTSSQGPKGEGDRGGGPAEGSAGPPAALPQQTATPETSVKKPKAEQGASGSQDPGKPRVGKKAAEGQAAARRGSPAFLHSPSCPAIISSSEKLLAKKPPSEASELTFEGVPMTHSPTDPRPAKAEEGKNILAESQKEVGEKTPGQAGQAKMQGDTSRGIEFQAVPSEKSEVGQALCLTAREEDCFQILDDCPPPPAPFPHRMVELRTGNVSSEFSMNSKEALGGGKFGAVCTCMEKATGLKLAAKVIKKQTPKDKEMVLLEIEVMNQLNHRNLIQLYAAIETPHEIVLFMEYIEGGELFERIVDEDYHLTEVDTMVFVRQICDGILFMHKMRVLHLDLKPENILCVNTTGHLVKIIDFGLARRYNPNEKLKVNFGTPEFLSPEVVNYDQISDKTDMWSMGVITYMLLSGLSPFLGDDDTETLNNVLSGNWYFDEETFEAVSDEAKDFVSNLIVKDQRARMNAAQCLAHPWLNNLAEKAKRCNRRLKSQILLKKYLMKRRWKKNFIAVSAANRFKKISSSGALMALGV
- test_protocol: KINOMEscan competition binding
- test_context: compound 10.0 µM
Answers are plain numbers, in %.

Known results for molecules:
Lookup: What does the record list as kinase still bound, per cent of control for `COc1cc(N2CCN(C)CC2)ccc1Nc1ncc2c(n1)Nc1ccccc1NC2=O` ?
Found: 69

Lookup: What does the record list as kinase still bound, per cent of control for `COc1cc(N2CCN(C)CC2)ccc1Nc1ncc2c(n1)N(C)c1sccc1C(=O)N2C` ?
Found: 90

Lookup: What does the record list as kinase still bound, per cent of control for `N=C1NC(=O)/C(=C/c2ccc(-c3cncc4ccccc34)o2)S1` ?
Found: 12

Lookup: What does the record list as kinase still bound, per cent of control for `COc1cc(N2CCC(O)CC2)ccc1Nc1ncc2c(n1)N1CCc3cccc(c31)C(=O)N2C` ?
Found: 98

Lookup: What does the record list as kinase still bound, per cent of control for `COc1cc(N2CCN(C)CC2)ccc1Nc1ncc2c(n1)N(C)c1ccccc1N(C)C2=O` ?
Found: 100

I need kinase still bound, per cent of control for every entry listed below, if you could help.
1. CN1C(=O)[C@H]2CCC[C@H]2N(C2CCCC2)c2nc(Nc3ccc(C(N)=O)cc3)ncc21
2. CN1C(=O)c2ccccc2N(C)c2nc(NS(=O)(=O)c3ccc(N)cc3)ncc21

Found:
1: 15; 2: 88

I need kinase still bound, per cent of control for every entry listed below, if you could help.
1. CN1CCN(c2ccc(C(=O)Nc3ncc4c(n3)N(C)c3ccccc3C(=O)N4C)cc2)CC1
2. CN1C(=O)[C@H]2CCC[C@H]2N(C2CCCC2)c2nc(Nc3ccc4ncccc4c3)ncc21
3. O=C1NC(=O)/C(=C/c2c[nH]c(=O)c(-c3ccc(N4CCNCC4)nc3)c2)S1
4. CN1C(=O)c2ccccc2N(C)c2nc(Nc3ccc(N4CCC(O)CC4)cc3)ncc21

Found:
100
8.3
14
80

---

- target_desc: ZAP70 (human)
- test_protocol: KINOMEscan competition binding
- test_context: compound 10.0 µM
Record form. Attribute: kinase still bound, per cent of control. Fill in for each entry.

Known results for compounds:
Lookup: Lab note: need kinase still bound, per cent of control for `CN1C(=O)c2ccccc2N(C)c2nc(Nc3ccc(N4CCC(O)CC4)cc3)ncc21` on ZAP70 (human), anyone have it?
Found: 87%

Lookup: Lab note: need kinase still bound, per cent of control for `COc1cc(N2CCN(C)CC2)ccc1Nc1ncc2c(n1)N(C)c1ccccc1N(C)C2=O` on ZAP70 (human), anyone have it?
Found: 100%

I need kinase still bound, per cent of control for every entry listed below, if you could help.
1. COc1cc(N2CCN(C)CC2)ccc1Nc1ncc2c(n1)Nc1ccccc1NC2=O
2. O=C1NC(=O)/C(=C/c2cc(-c3ccc(N4CCNCC4)nc3)c[nH]c2=O)S1
3. O=C1NC(=O)/C(=C/c2c[nH]c(=O)c(-c3ccc(C(=O)Nc4ccc(N5CCNCC5)cc4)cc3)c2)S1

Found:
["100%", "11%", "11%"]

---

- target_desc: UniProtKB P54646
- Sequence (P54646 whole entry, looked up): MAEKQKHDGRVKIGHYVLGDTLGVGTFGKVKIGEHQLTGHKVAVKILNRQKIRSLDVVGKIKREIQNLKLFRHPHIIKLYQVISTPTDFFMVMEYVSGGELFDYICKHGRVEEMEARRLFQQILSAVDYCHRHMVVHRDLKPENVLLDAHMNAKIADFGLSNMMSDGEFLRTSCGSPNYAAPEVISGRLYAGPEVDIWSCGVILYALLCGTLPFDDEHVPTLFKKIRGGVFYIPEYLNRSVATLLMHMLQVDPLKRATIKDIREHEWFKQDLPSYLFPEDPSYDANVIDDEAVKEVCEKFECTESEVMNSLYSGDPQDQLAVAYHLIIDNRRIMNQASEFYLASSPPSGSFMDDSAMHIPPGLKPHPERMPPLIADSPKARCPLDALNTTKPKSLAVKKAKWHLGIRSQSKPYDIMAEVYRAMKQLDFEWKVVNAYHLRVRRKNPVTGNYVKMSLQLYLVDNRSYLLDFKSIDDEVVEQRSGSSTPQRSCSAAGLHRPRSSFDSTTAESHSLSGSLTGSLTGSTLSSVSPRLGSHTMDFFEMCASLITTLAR
- test_protocol: KINOMEscan competition binding
- test_context: compound 10.0 µM
quantity: kinase still bound, per cent of control

I need kinase still bound, per cent of control for every entry listed below, if you could help.
1. CN1C(=O)c2ccccc2N(C)c2nc(Nc3ccc(N4CCC(O)CC4)cc3)ncc21
2. COc1cc(N2CCN(C)CC2)ccc1Nc1ncc2c(n1)Nc1ccccc1NC2=O

Found:
1. 31%
2. 84%

I need kinase still bound, per cent of control for every entry listed below, if you could help.
1. COc1cc(N2CCN(C)CC2)ccc1Nc1ncc2c(n1)N(C)c1sccc1C(=O)N2C
2. N=C1NC(=O)/C(=C/c2ccc(-c3cncc4ccccc34)o2)S1
3. COc1cc(N2CCC(O)CC2)ccc1Nc1ncc2c(n1)N1CCc3cccc(c31)C(=O)N2C
4. CN1C(=O)c2ccccc2N(C)c2nc(NS(=O)(=O)c3ccc(N)cc3)ncc21
5. CN1CCN(c2ccc(C(=O)Nc3ncc4c(n3)N(C)c3ccccc3C(=O)N4C)cc2)CC1
6. COc1cc(N2CCN(C)CC2)ccc1Nc1ncc2c(n1)N(C)c1ccccc1N(C)C2=O
7. O=C1NC(=O)/C(=C/c2c[nH]c(=O)c(-c3ccc(N4CCNCC4)nc3)c2)S1

Found:
["94%", "33%", "100%", "96%", "100%", "94%", "100%"]
